Data provenance: ChEMBL document CHEMBL1146582

- experiment: Inhibition of testerone 5-alpha-reductase at 50 ug/mL
Here, each record is paired with measured inhibition data.
The reply should be a number in %, with the unit left off.

Sample records with inhibition:
C=CC(c1ccccc1)c1cc(O)c(OC)cc1OC (stereo unspecified)    18.9
COc1cc2oc(Cc3cc(OC)c(OC)cc3OC/C=C/c3ccccc3)c(-c3ccccc3)c2cc1O    15.9
COC1=CC(=O)C(Cc2oc3cc(OC)c(O)cc3c2-c2ccccc2)=CC1(C/C=C/c1ccccc1)OC (stereo unspecified)    3.8

Input CC1(C)[C@@H](O)CC[C@]2(C)[C@H]3C(=O)C=C4[C@@H]5C[C@@](C)(C(=O)O)CC[C@]5(C)CC[C@@]4(C)[C@]3(C)CC[C@@H]12 , output reported inhibition.
64.7

Input COC1=CC(=O)c2cc(-c3ccccc3)c3cc(O)c(OC)cc3c2C1=O , output reported inhibition.
52

Input COc1cc(O)ccc1C(=O)/C=C/c1ccccc1 , output reported inhibition.
20.7

###

- experiment: Inhibition of testerone 5-alpha-reductase at 25 ug/mL
Label Fulfilled when inhibition is at or above 20%; otherwise label Not fulfilled.

Example entries and their recorded answers appear below.
C=CC(c1ccccc1)c1cc(O)c(OC)cc1OC (stereo unspecified)    Not fulfilled
COc1cc2oc(Cc3cc(OC)c(OC)cc3OC/C=C/c3ccccc3)c(-c3ccccc3)c2cc1O    Not fulfilled
COC1=CC(=O)c2cc(-c3ccccc3)c3cc(O)c(OC)cc3c2C1=O    Fulfilled
COC1=CC(=O)C(Cc2oc3cc(OC)c(O)cc3c2-c2ccccc2)=CC1(C/C=C/c1ccccc1)OC (stereo unspecified)    Not fulfilled

# input for lookup
For this compound, is measured inhibition 20% or higher? CC1(C)[C@@H](O)CC[C@]2(C)[C@H]3C(=O)C=C4[C@@H]5C[C@@](C)(C(=O)O)CC[C@]5(C)CC[C@@]4(C)[C@]3(C)CC[C@@H]12
Fulfilled
